Species on record: Rattus norvegicus
Assay: DrugMatrix - Regimen: Daily Repeat
Type: toxicity, organism-based, Sprague-Dawley
Set-up: regimen Daily Repeat, gender Male, age 6-8 weeks
Details: in vivo, po, 0 mg/kg, 120 h, tissue Plasma, route oral GAVAGE, dose level Control, time 5 day, vehicle 100 % WATER
observable: ALBUMIN (G/DL)
Numbers only, in G/DL.

Some solved cases for reference:
Note to self: ALBUMIN recorded for `CCN(C(C)=O)c1cccc(-c2ccnc3c(C#N)cnn23)c1` was 4.08

Note to self: ALBUMIN recorded for CCCC(C)C1(CC)C(=O)NC(=O)NC1=O (centres undefined) was 3.97

Note to self: ALBUMIN recorded for `NC12CC3CC(CC(C3)C1)C2` was 4.08

Note to self: ALBUMIN recorded for O=c1[nH]c(=O)n(C2CCCO2)cc1F (centres undefined) was 4.22

Note to self: ALBUMIN recorded for NC(=O)c1cccnc1 [NIACINAMIDE] was 4.32

Can you give me ALBUMIN for all of these, one by one?
1. CCN(CC)CCNC(=O)c1ccc(N)cc1 [PROCAINAMIDE]
2. CCN(CC)CCOC(=O)C1(C2CCCCC2)CCCCC1
3. CN(C)C(=O)Oc1cccc([N+](C)(C)C)c1.[Br-] [NEOSTIGMINE BROMIDE]
4. CN(C)CCC=C1c2ccccc2CCc2ccccc21

[3.63, 3.73, 3.97, 4.08]

====

Species: Rattus norvegicus
Assay: DrugMatrix - Regimen: Daily Repeat
Type: toxicity, organism-based, Sprague-Dawley
Set-up: regimen Daily Repeat, gender Male, age 6-8 weeks
Details: in vivo, po, 0 mg/kg, […], tissue Blood, route oral GAVAGE, dose level Control, time 14 day, vehicle .5 % CMC
observable: ABSOLUTE MONOCYTE

Note to self: ABSOLUTE MONOCYTE recorded for `COc1ccccc1[N+](=O)[O-]` was 534.83 CELLS/uL

Next compound, please.
Note to self: ABSOLUTE MONOCYTE recorded for `CN(C)CCN(Cc1cccs1)c1ccccn1` was 190 cells/µL

====

I'd appreciate it if you could supply ALKALINE PHOSPHATASE values for the items below.
Organism: Rattus norvegicus
Test: DrugMatrix - Regimen: Daily Repeat
Assay type: toxicity, organism-based, Sprague-Dawley
Parameters: regimen Daily Repeat, gender Male, age 6-8 weeks
Conditions: in vivo, iv, 0 mg/kg, 72 h, tissue Plasma, dose level Control, time 3 day, vehicle 100 % SALINE
Answers are plain numbers, in u/L.

Can you give me ALKALINE PHOSPHATASE for all of these, one by one?
1. COc1cccc2c1C(=O)c1c(O)c3c(c(O)c1C2=O)C[C@@](O)(C(C)=O)C[C@@H]3O[C@H]1C[C@H](N)[C@H](O)[C@H](C)O1 [DAUNORUBICIN]
2. O=c1[nH]c(=O)n([C@H]2C[C@H](O)[C@@H](CO)O2)cc1F [FLOXURIDINE]

1: 406.83; 2: 421

Can you give me ALKALINE PHOSPHATASE for all of these, one by one?
1. C[N+](C)(C)CCOC(=O)CCC(=O)OCC[N+](C)(C)C.[Cl-].[Cl-] [SUCCINYLCHOLINE CHLORIDE]
2. N=C(N)c1ccc(OCCCCCOc2ccc(C(=N)N)cc2)cc1 [PENTAMIDINE]
3. O=C(O)P(=O)(O)O [FOSCARNET]

1. 396.33
2. 396.33
3. 383.17

====

Species on record: Rattus norvegicus
Experiment: DrugMatrix - Regimen: Daily Repeat
Format: toxicity, organism-based, Sprague-Dawley
Parameters: regimen Daily Repeat, gender Male, age 6-8 weeks
Details: in vivo, po, 0 mg/kg, 120 h, tissue Blood, route oral GAVAGE, dose level Control, time 5 day, vehicle .5 % CMC
I'd appreciate it if you could supply LEUKOCYTE COUNT values for the items below.
Answers are plain numbers, in x10E3/uL.

Some solved cases for reference:
Note to self: LEUKOCYTE COUNT recorded for NC(=O)N1c2ccccc2CC(=O)c2ccccc21 [OXCARBAZEPINE] was 16.08

Note to self: LEUKOCYTE COUNT recorded for `COc1ccc2c(c1OC)C(=O)O[C@@H]2[C@H]1c2c(cc3c(c2OC)OCO3)CCN1C` was 11.38

Note to self: LEUKOCYTE COUNT recorded for `C#C[C@]1(O)CC[C@H]2[C@@H]3CCC4=CC(=O)CC[C@]4(C)[C@H]3CC[C@@]21C` was 11.38

Next molecule, please.
Note to self: LEUKOCYTE COUNT recorded for CN(C)C(=O)C(CCN1CCC(O)(c2ccc(Cl)cc2)CC1)(c1ccccc1)c1ccccc1 [LOPERAMIDE] was 15.03

====

Species on record: Rattus norvegicus
Assay: DrugMatrix - Regimen: Daily Repeat
Assay type: toxicity, organism-based, Sprague-Dawley
Parameters: regimen Daily Repeat, gender Male, age 6-8 weeks
Conditions: in vivo, iv, 0 mg/kg, 120 h, tissue Plasma, dose level Control, time 5 day, vehicle 100 % SALINE
I'd appreciate it if you could supply LACTATE DEHYDROGENASE values for the items below.
Numbers only, in u/L.

Some solved cases for reference:
Note to self: LACTATE DEHYDROGENASE recorded for `O=C(O)P(=O)(O)O` was 471.33

Note to self: LACTATE DEHYDROGENASE recorded for C[N+](C)(C)CCOC(=O)CCC(=O)OCC[N+](C)(C)C.[Cl-].[Cl-] [SUCCINYLCHOLINE CHLORIDE] was 405.5

Note to self: LACTATE DEHYDROGENASE recorded for `N=C(N)c1ccc(OCCCCCOc2ccc(C(=N)N)cc2)cc1` was 405.5

Next molecule, please.
Note to self: LACTATE DEHYDROGENASE recorded for `O=c1[nH]c(=O)n([C@H]2C[C@H](O)[C@@H](CO)O2)cc1F` was 540.33

====

Species: Rattus norvegicus
Assay: DrugMatrix - Regimen: Daily Repeat
Type: toxicity, organism-based, Sprague-Dawley
Set-up: regimen Daily Repeat, gender Male, age 6-8 weeks
Conditions: in vivo, ip, 0 mg/kg, 120 h, tissue Blood, route intraperitoneal, dose level Control, time 5 day, vehicle 100 % SALINE
I'd appreciate it if you could supply ABSOLUTE BASOPHIL values for the items below.
Answers are plain numbers, in cells/µL.

Note to self: ABSOLUTE BASOPHIL recorded for COBALTOUS CHLORIDE was 32

Continuing:
Note to self: ABSOLUTE BASOPHIL recorded for `TRANSPLATIN` was 32

====

Species on record: Rattus norvegicus
Test: DrugMatrix - Regimen: Daily Repeat
Assay type: toxicity, organism-based, Sprague-Dawley
Design: regimen Daily Repeat, gender Male, age 6-8 weeks
Details: in vivo, iv, 0 mg/kg, 72 h, tissue Plasma, dose level Control, time 3 day, vehicle 100 % SALINE
observable: POTASSIUM (MEQ/L)
Numbers only, in MEQ/L.

Note to self: POTASSIUM recorded for COc1cccc2c1C(=O)c1c(O)c3c(c(O)c1C2=O)C[C@@](O)(C(C)=O)C[C@@H]3O[C@H]1C[C@H](N)[C@H](O)[C@H](C)O1 [DAUNORUBICIN] was 5.67

Note to self: POTASSIUM recorded for O=C(O)P(=O)(O)O [FOSCARNET] was 6.23

Note to self: POTASSIUM recorded for N=C(N)c1ccc(OCCCCCOc2ccc(C(=N)N)cc2)cc1 [PENTAMIDINE] was 6.48

Note to self: POTASSIUM recorded for C[N+](C)(C)CCOC(=O)CCC(=O)OCC[N+](C)(C)C.[Cl-].[Cl-] [SUCCINYLCHOLINE CHLORIDE] was 6.48

Next molecule, please.
Note to self: POTASSIUM recorded for O=c1[nH]c(=O)n([C@H]2C[C@H](O)[C@@H](CO)O2)cc1F [FLOXURIDINE] was 5.93

====

Species: Rattus norvegicus
Test: DrugMatrix - Regimen: Daily Repeat
Type: toxicity, organism-based, Sprague-Dawley
Parameters: regimen Daily Repeat, gender Male, age 6-8 weeks
Conditions: in vivo, ip, 0.5 mg/kg, […], tissue Blood, route intraperitoneal, dose level High, time 28 day, vehicle 100 % SALINE
observable: ABSOLUTE BASOPHIL

Note to self: ABSOLUTE BASOPHIL recorded for `TRANSPLATIN` was 120 cells/µL

====

Species on record: Rattus norvegicus
Assay: DrugMatrix - Regimen: Daily Repeat
Type: toxicity, organism-based, Sprague-Dawley
Set-up: regimen Daily Repeat, gender Male, age 6-8 weeks
Conditions: in vivo, po, 0 mg/kg, 120 h, tissue Blood, route oral GAVAGE, dose level Control, time 5 day, […]
Binary call on ABSOLUTE SEGMENTED NEUTROPHIL: 1.0 from 600 CELLS/uL upward, 0.0 beneath that.

Hi team, for CC(=O)Oc1ccccc1C(=O)O [ASPIRIN] , is the recorded ABSOLUTE SEGMENTED NEUTROPHIL at or above 600 CELLS/uL?
1.0

Hi team, for O=c1c(-c2ccc(O)cc2)coc2cc(O)cc(O)c12 [GENISTEIN] , is the recorded ABSOLUTE SEGMENTED NEUTROPHIL at or above 600 CELLS/uL?
1.0

Hi team, for CC(C)c1c(C(=O)Nc2ccccc2)c(-c2ccccc2)c(-c2ccc(F)cc2)n1CC[C@@H](O)C[C@@H](O)CC(=O)O [ATORVASTATIN] , is the recorded ABSOLUTE SEGMENTED NEUTROPHIL at or above 600 CELLS/uL?
1.0

Hi team, for CCc1ccc(CCOc2ccc(CC3SC(=O)NC3=O)cc2)nc1 (stereo unspecified) [PIOGLITAZONE] , is the recorded ABSOLUTE SEGMENTED NEUTROPHIL at or above 600 CELLS/uL?
1.0

Now consider a different compound.
Hi team, for CS(=O)(=O)Nc1ccc([N+](=O)[O-])cc1Oc1ccccc1 [NIMESULIDE] , is the recorded ABSOLUTE SEGMENTED NEUTROPHIL at or above 600 CELLS/uL?
0.0
